assay.target: ePNPO N84W/K145A/F177A variant (Escherichia coli, UniProt P0AFI7, F177A/K145A/N84W)
Construct: the entire polypeptide chain is made by 218 residues
Sequence (P0AFI7 whole entry N84W/K145A/F177A): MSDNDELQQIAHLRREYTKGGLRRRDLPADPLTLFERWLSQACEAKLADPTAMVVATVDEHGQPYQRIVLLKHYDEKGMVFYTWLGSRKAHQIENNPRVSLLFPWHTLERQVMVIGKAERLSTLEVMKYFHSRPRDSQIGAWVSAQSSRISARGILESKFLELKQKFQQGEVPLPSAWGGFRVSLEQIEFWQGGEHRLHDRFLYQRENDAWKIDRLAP
assay.comment: Fluorimetric PLP binding equilibrium
endpoint.label: Kd (nM)
Your answer should be a plain number; it is taken to be in nM.

If you can, please state the reported Kd value of Cc1ncc(COP(=O)(O)O)c(C=O)c1O [PLP, Pyridoxal 5’-phosphate] .
330

* * *

assay.target: ePNPO R23L/R24L variant (Escherichia coli, UniProt P0AFI7, R23L/R24L)
Sequence (P0AFI7 whole entry R23L/R24L): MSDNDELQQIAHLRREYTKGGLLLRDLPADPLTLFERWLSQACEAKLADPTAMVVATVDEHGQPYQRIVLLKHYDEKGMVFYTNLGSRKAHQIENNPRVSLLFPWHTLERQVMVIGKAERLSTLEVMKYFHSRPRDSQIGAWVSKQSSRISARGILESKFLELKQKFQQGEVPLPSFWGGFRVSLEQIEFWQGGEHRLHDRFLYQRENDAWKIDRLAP
assay.comment: Fluorimetric PLP binding equilibrium
endpoint.label: Kd (µM)
Your answer should be a plain number; it is taken to be in µM.

Recorded Kd for Cc1ncc(COP(=O)(O)O)c(C=O)c1O [PLP, Pyridoxal 5’-phosphate] with ePNPO R23L/R24L variant (Escherichia coli, UniProt P0AFI7, R23L/R24L), please?
1

* * *

assay.target: ePNPO R23L/R24L variant (Escherichia coli, UniProt P0AFI7, R23L/R24L)
assay.comment: biochemical
Type: biochemical
Parameters: the entire polypeptide chain is made by 218 residues; made in house; host or cells: E. coli MDS00, pET22b(+)
stated.conditions: KI (PLP binding at the allosteric site), global fit (Fig. 8A model)
endpoint.label: pKi
Just the number, please; pKi means minus log10 of the concentration in mol/L.

If you can, please state the reported pKi value of Cc1ncc(COP(=O)(O)O)c(C=O)c1O [PLP, Pyridoxal 5’-phosphate] .
6.09

* * *

assay.target: ePNPO N84A/K145A/F177A variant (Escherichia coli, UniProt P0AFI7, F177A/K145A/N84A)
Construct: the entire polypeptide chain is made by 218 residues
Sequence (P0AFI7 whole entry N84A/K145A/F177A): as the sequence (P0AFI7 whole entry R23L/R24L) above, with L23R, L24R, N84A, K145A, F177A counted along it
assay.comment: Fluorimetric PLP binding equilibrium
endpoint.label: pKd
Just the number, please; pKd means minus log10 of the concentration in mol/L.

Recorded pKd for Cc1ncc(COP(=O)(O)O)c(C=O)c1O [PLP, Pyridoxal 5’-phosphate] with ePNPO N84A/K145A/F177A variant (Escherichia coli, UniProt P0AFI7, F177A/K145A/N84A), please?
6.44

* * *

assay.target: ePNPO K145A/F177A variant (Escherichia coli, UniProt P0AFI7, F177A/K145A)
Construct: the entire polypeptide chain is made by 218 residues
Sequence (P0AFI7 whole entry K145A/F177A): as the sequence (P0AFI7 whole entry R23L/R24L) above, with L23R, L24R, K145A, F177A counted along it
assay.comment: Fluorimetric PLP binding equilibrium
endpoint.label: pKd
Just the number, please; pKd means minus log10 of the concentration in mol/L.

Recorded pKd for Cc1ncc(COP(=O)(O)O)c(C=O)c1O [PLP, Pyridoxal 5’-phosphate] with ePNPO K145A/F177A variant (Escherichia coli, UniProt P0AFI7, F177A/K145A), please?
6.33

* * *

assay.target: ePNPO R23L/R24L variant (Escherichia coli, UniProt P0AFI7, R23L/R24L)
assay.comment: biochemical
Assay type: biochemical
Design: the entire polypeptide chain is made by 218 residues; made in house; host or cells: E. coli MDS00, pET22b(+)
stated.conditions: γKX (PLP binding at active site of PE complex), global fit (Fig. 8A model)
endpoint.label: pKi
Just the number, please; pKi means minus log10 of the concentration in mol/L.

If you can, please state the reported pKi value of Cc1ncc(COP(=O)(O)O)c(C=O)c1O [PLP, Pyridoxal 5’-phosphate] .
5.69

* * *

assay.target: ePNPO R23L variant (Escherichia coli, UniProt P0AFI7, R23L)
Sequence (P0AFI7 whole entry R23L): as the sequence (P0AFI7 whole entry R23L/R24L) above, with L24R counted along it
assay.comment: Fluorimetric PLP binding equilibrium
endpoint.label: pKd
Just the number, please; pKd means minus log10 of the concentration in mol/L.

Recorded pKd for Cc1ncc(COP(=O)(O)O)c(C=O)c1O [PLP, Pyridoxal 5’-phosphate] with ePNPO R23L variant (Escherichia coli, UniProt P0AFI7, R23L), please?
6.24

Reference source for all entries: paper PMC8215295
